- Target Entity: UniProtKB P61073
- Sequence (P61073 whole entry): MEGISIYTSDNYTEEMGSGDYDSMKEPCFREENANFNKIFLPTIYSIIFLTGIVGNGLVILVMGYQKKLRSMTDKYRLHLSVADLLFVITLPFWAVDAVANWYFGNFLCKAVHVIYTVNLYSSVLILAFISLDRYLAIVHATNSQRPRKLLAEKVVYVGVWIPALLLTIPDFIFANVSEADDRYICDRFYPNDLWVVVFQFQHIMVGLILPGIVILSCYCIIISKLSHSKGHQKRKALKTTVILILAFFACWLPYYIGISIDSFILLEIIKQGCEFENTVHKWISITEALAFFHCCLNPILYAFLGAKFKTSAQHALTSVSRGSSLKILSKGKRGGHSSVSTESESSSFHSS
- Experimental Protocol: cAMP assay
Outcome Measure: IC50

Which IC50 value belongs to "Fc1cnc(Cl)nc1NCc1ccc(CNc2ccnc(NCCN3CCOCC3)n2)cc1" ? ~1 nM
